Target System: MOP (Homo sapiens, UniProt P35372)
Sequence (P35372 whole entry): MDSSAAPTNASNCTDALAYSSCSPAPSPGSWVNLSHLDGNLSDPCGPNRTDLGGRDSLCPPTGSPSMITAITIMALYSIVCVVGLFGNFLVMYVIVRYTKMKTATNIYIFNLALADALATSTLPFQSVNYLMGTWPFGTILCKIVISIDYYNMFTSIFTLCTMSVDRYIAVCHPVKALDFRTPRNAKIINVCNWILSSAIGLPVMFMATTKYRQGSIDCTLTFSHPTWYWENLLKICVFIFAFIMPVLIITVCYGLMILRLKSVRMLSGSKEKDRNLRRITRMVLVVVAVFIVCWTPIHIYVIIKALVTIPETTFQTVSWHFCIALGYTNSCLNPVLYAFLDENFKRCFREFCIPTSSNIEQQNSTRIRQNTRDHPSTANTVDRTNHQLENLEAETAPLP
Test Protocol: cAMP biosensor assay, MOP agonist mode
Quick reference for log10 EC50 among some molecules
Annotation: log10 of EC50, nM basis.

> print(dat)
                                   molecule  measured.parameter  reported.result
1  O[C@H]1CN[C@H](c2nc3ccccc3n2C2CCN(CC3CCCCCCC3)CC2)C1          log10 EC50             2.76
2  c1ccc(CN2CCC(n3c([C@@H]4CCNC4)nc4ccccc43)CC2)cc1          log10 EC50             2.43
3  c1ccc2c(c1)nc(C1CCNCC1)n2C1CCN(CC2CCCCCCC2)CC1          log10 EC50             2.60
4  C1=CC2CC1CC2CN1CCC(n2c(C3CNC3)nc3ccccc32)CC1 (stereo not drawn)          log10 EC50             2.48
5  Fc1ccc2c(c1)nc([C@@H]1CCCNC1)n2C1CCN(CC2CCCCCCC2)CC1          log10 EC50             2.36

With those in mind, consider the next molecule.
Look up log10 EC50: "Cc1ccc2c(c1)nc([C@@H]1CCNC1)n2C1CCN(CC2CCCCCCC2)CC1" 3.77
